Reported half-life values for a set of compounds
# Experiment Notes: Pharmacokinetics in beagle dogs
# Format: in vivo
# Recorded Conditions: male, dog, plasma, po, P.O. (1 mg/kg)
Dear colleague, please return just the value in h, with no unit written.

Worked set:
# Compound, Numeric Value
measured = [
    ("CCc1nn2cc(F)c(N3CCN(CC(=O)N4CC(O)C4)CC3)cc2c1N(C)c1nc(-c2ccc(F)cc2)c(C#N)s1 [Example 101]", 4.69),
    ("CCc1nn2cc(F)c(N3CC4(CN(C(=O)[C@H]5CCOC5)C4)C3)cc2c1N(C)c1nc(-c2ccc(F)cc2)c(C#N)s1 [Example 102]", 20.4),
    ("CCc1nc2c(C)cc(N3CCN(CC(=O)N4CC(O)C4)CC3)cn2c1N(C)c1nc(-c2ccc(F)cc2)c(C#N)s1 [GLPG1690]", 3.04),
]

// switching to the query compound
Ask: Need half-life of CCn1nc2ncc(N3CC4(CN(C(=O)C5CCOCC5)C4)C3)cc2c1N(C)c1nc(-c2ccc(F)cc2)c(C#N)s1 [Compound 118] , thanks.
Reply: 3.99

---

# Experiment Notes: Pharmacokinetics in beagle dogs
# Assay type: in vivo
# Recorded Conditions: male, dog, plasma, iv, I.V. (1 mg/kg)
Reported half-life values for a set of compounds
Dear colleague, please return just the value in min, with no unit written.

Worked set:
# Entry Smiles, Recorded Metric, Quantity Unit, Numeric Value
data = [
    ("CCc1nc2c(C)cc(N3CCN(CC(=O)N4CC(O)C4)CC3)cn2c1N(C)c1nc(-c2ccc(F)cc2)c(C#N)s1", "half-life", "min", 127),
    ("CCc1nn2cc(F)c(N3CCN(CC(=O)N4CC(O)C4)CC3)cc2c1N(C)c1nc(-c2ccc(F)cc2)c(C#N)s1", "half-life", "min", 304),
    ("CCn1nc2ncc(N3CC4(CN(C(=O)C5CCOCC5)C4)C3)cc2c1N(C)c1nc(-c2ccc(F)cc2)c(C#N)s1", "half-life", "min", 201),
]

// switching to the query compound
Ask: Need half-life of CCc1nn2cc(F)c(N3CC4(CN(C(=O)[C@H]5CCOC5)C4)C3)cc2c1N(C)c1nc(-c2ccc(F)cc2)c(C#N)s1 , thanks.
Reply: 888

---

# Experiment Notes: Pharmacokinetics in cynomolgus monkeys
# Format: in vivo
# Recorded Conditions: male, cynomolgus monkey, plasma, po, P.O. (1 mg/kg)
Recorded Metric: half-life
Number first, unit second: that is the form wanted.

Worked set:
# Entry Smiles, half-life
measured = [
    ("CCn1nc2ncc(N3CC4(CN(C(=O)C5CCOCC5)C4)C3)cc2c1N(C)c1nc(-c2ccc(F)cc2)c(C#N)s1", "2.63 h"),
    ("CCc1nn2cc(F)c(N3CCN(CC(=O)N4CC(O)C4)CC3)cc2c1N(C)c1nc(-c2ccc(F)cc2)c(C#N)s1", "2.49 h"),
]

// switching to the query molecule
Ask: Need half-life of CCc1nc2c(C)cc(N3CCN(CC(=O)N4CC(O)C4)CC3)cn2c1N(C)c1nc(-c2ccc(F)cc2)c(C#N)s1 , thanks.
Reply: 1.82 h

---

# Tested On: CYP 1A2 (Homo sapiens)
# Sequence (P05177 1-516): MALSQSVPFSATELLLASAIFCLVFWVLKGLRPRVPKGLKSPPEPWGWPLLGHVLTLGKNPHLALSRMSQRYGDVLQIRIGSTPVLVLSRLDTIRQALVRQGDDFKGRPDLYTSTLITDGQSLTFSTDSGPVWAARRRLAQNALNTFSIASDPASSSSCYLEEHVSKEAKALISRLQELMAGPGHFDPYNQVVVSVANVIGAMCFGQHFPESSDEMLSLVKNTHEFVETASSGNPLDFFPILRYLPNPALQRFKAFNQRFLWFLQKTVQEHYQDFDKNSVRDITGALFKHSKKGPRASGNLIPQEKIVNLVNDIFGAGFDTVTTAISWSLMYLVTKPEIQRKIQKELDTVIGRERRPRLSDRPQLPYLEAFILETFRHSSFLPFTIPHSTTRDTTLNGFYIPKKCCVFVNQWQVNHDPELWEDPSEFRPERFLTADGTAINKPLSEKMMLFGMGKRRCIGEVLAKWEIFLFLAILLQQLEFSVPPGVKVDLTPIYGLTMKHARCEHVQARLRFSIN
pIC50: −log10 of the molar value.
Reported pIC50 values for a set of compounds

Worked set:
# Compound, Result
data = [
    ("CCc1nn2cc(F)c(N3CCN(CC(=O)N4CC(O)C4)CC3)cc2c1N(C)c1nc(-c2ccc(F)cc2)c(C#N)s1 [Example 101]", "< 4.30"),
    ("CCn1nc2ncc(N3CC4(CN(C(=O)C5CCOCC5)C4)C3)cc2c1N(C)c1nc(-c2ccc(F)cc2)c(C#N)s1 [Compound 118]", "< 4.30"),
]

Ask: Need pIC50 of CCc1nn2cc(F)c(N3CC4(CN(C(=O)[C@H]5CCOC5)C4)C3)cc2c1N(C)c1nc(-c2ccc(F)cc2)c(C#N)s1 [Example 102] , thanks.
Reply: 4.86

Ask: Need pIC50 of CCc1nc2c(C)cc(N3CCN(CC(=O)N4CC(O)C4)CC3)cn2c1N(C)c1nc(-c2ccc(F)cc2)c(C#N)s1 [GLPG1690] , thanks.
Reply: < 4.30

---

# Experiment Notes: Metabolic stability in liver microsomes
# Type: in vitro ADME
# Recorded Conditions: SD rat liver microsomes, compound 1 μM
Recorded Metric: metabolic stability (halftime in minutes), Rat

Ask: Need metabolic stability (halftime in minutes), Rat of CCc1nn2cc(F)c(N3CCN(CC(=O)N4CC(O)C4)CC3)cc2c1N(C)c1nc(-c2ccc(F)cc2)c(C#N)s1 , thanks.
Reply: 96.6 min

---

Reported AUC values for a set of molecules
# Experiment Notes: Pharmacokinetics in beagle dogs
# Format: in vivo
# Recorded Conditions: male, dog, plasma, po, P.O. (1 mg/kg)
Dear colleague, please return just the value in µg·h/mL, with no unit written.

Worked set:
# Entry Smiles, Recorded Metric, Numeric Value
records = [
    ("CCc1nn2cc(F)c(N3CCN(CC(=O)N4CC(O)C4)CC3)cc2c1N(C)c1nc(-c2ccc(F)cc2)c(C#N)s1", "AUC", 4.02),
    ("CCc1nn2cc(F)c(N3CC4(CN(C(=O)[C@H]5CCOC5)C4)C3)cc2c1N(C)c1nc(-c2ccc(F)cc2)c(C#N)s1", "AUC", 2.19),
    ("CCc1nc2c(C)cc(N3CCN(CC(=O)N4CC(O)C4)CC3)cn2c1N(C)c1nc(-c2ccc(F)cc2)c(C#N)s1", "AUC", 5.75),
]

// switching to the query molecule
Ask: Need AUC of CCn1nc2ncc(N3CC4(CN(C(=O)C5CCOCC5)C4)C3)cc2c1N(C)c1nc(-c2ccc(F)cc2)c(C#N)s1 , thanks.
Reply: 0.9

---

Reported Cmax values for a set of molecules
# Experiment Notes: Pharmacokinetics after a single oral dose in SD rats
# Format: in vivo
# Recorded Conditions: Sprague-Dawley, rat, plasma, single oral dose in 0.5% methylcellulose
Dear colleague, please return just the value in ng/mL, with no unit written.

Worked set:
# Entry Smiles, Quantity Unit, Cmax
rows = [
    ("CCn1nc2ncc(N3CC4(CN(C(=O)[C@H]5CCOC5)C4)C3)cc2c1N(C)c1nc(-c2ccc(F)cc2)c(C#N)s1", "ng/mL", 584),
    ("CCc1nn2cc(F)c(N3CCN(CC(=O)N4CC[C@@H](O)C4)CC3)cc2c1N(C)c1nc(-c2ccc(F)cc2)c(C#N)s1", "ng/mL", 67.1),
    ("CCc1nn2cc(F)c(N3CCN(CC(=O)N4CC(O)C4)CC3)cc2c1N(C)c1nc(-c2ccc(F)cc2)c(C#N)s1", "ng/mL", 268),
]

// switching to the query molecule
Ask: Need Cmax of CN(c1nc(-c2ccc(F)cc2)c(C#N)s1)c1c(C2CC2)nn2cc(F)c(N3CC4(CN(C(=O)[C@H]5CCOC5)C4)C3)cc12 , thanks.
Reply: 140

---

# Experiment Notes: Metabolic stability in liver microsomes
# Assay type: in vitro ADME
# Recorded Conditions: CD-1 mouse liver microsomes, compound 1 μM
Reported metabolic stability (halftime in minutes), Mouse values for a set of compounds
Dear colleague, please return just the value in min, with no unit written.

Worked set:
# Entry Smiles, Numeric Value
records = [
    ("CCn1nc2ncc(N3CC4(CN(C(=O)C5CCOCC5)C4)C3)cc2c1N(C)c1nc(-c2ccc(F)cc2)c(C#N)s1", 58.5),
    ("CCc1nc2c(C)cc(N3CCN(CC(=O)N4CC(O)C4)CC3)cn2c1N(C)c1nc(-c2ccc(F)cc2)c(C#N)s1", 10.3),
    ("CCc1nn2cc(F)c(N3CC4(CN(C(=O)[C@H]5CCOC5)C4)C3)cc2c1N(C)c1nc(-c2ccc(F)cc2)c(C#N)s1", 17.9),
]

// switching to the query compound
Ask: Need metabolic stability (halftime in minutes), Mouse of CCc1nn2cc(F)c(N3CCN(CC(=O)N4CC(O)C4)CC3)cc2c1N(C)c1nc(-c2ccc(F)cc2)c(C#N)s1 , thanks.
Reply: 14.0
